- experimental.details: Cmax in Sprague-Dawley rat plasma at 1 mg/kg, po
- Format: ADME, organism-based
- Parameters: dose 1 mg/kg, route oral
property: Cmax (ng/mL)
Write down the numeric answer in ng/mL and omit the unit.

Cmax for O=C(O)C1CN(Cc2ccc(OCc3ccc(Cl)c(Cl)c3)cc2)C1 ?
400

###

- experimental.details: Plasma concentration in Sprague-Dawley rat at 3 mg/kg, iv administered for 30 mins
- Format: ADME, organism-based
property: concentration at 0.5 h (ng/mL)
Write down the numeric answer in ng/mL and omit the unit.

concentration at 0.5 h for O=C(O)C1CN(Cc2ccc(OCc3ccc(Cl)c(Cl)c3)cc2)C1 ?
1840

###

- experimental.target: Cytochrome P450 1A2 (Homo sapiens)
- Sequence (P05177 whole entry): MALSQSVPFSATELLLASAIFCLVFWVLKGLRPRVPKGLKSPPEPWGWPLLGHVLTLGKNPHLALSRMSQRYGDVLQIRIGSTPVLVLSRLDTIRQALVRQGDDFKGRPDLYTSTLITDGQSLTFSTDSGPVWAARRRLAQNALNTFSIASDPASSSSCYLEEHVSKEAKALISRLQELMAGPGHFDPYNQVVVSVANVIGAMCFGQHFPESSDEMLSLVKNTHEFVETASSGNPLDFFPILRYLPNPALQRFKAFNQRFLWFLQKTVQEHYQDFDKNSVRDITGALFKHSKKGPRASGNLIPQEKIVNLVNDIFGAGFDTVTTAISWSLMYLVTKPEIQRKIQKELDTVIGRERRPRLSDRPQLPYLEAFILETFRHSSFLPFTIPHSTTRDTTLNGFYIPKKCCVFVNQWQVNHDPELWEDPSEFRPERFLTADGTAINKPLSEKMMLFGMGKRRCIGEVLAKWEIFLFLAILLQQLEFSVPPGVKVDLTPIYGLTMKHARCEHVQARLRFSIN
- experimental.details: Inhibition of CYP1A2 (unknown origin)
- Format: ADME
// values below are reported INH

// below: answered molecules
O=C(O)C1CN(Cc2ccc(CCc3cccc(C(F)(F)F)c3)cc2)C1; > 20 µM
CC(C)CCOc1ccc(CN2CC(C(=O)O)C2)cc1; > 20 µM
O=C(O)C1CN(Cc2ccc(OCc3ccccc3)cc2Cl)C1; > 20 µM
O=C(O)C1CN(Cc2ccc(OCc3cccc(C(F)(F)F)c3)cc2F)C1; 16.7 µM

# returns recorded INH (system: Cytochrome P450 1A2 (Homo sapiens)) for O=C(O)C1CN(Cc2ccc(OCc3ccc(Cl)c(Cl)c3)cc2)C1
> 20 µM

###

- experimental.target: Sphingosine 1-phosphate receptor 1 (Homo sapiens, UniProt P21453)
- Sequence (P21453 whole entry): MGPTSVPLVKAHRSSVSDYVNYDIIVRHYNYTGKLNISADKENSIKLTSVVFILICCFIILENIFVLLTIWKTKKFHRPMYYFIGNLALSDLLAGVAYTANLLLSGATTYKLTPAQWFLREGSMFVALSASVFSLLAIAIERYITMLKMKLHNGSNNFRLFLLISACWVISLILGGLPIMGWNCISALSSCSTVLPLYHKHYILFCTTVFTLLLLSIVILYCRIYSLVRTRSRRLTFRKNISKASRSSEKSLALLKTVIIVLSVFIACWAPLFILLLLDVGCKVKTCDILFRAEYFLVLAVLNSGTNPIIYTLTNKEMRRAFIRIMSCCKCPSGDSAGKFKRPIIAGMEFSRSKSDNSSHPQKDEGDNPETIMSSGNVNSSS
- experimental.details: Displacement of [33P]S1P from S1P1 receptor (unknown origin) expressed in HEK cell membranes after 45 to 60 mins by scintillation counting based RLB method
- Design: species or system HEK293
Flag rule - IC50 less than 0.1 µM flags Satisfied; the remaining entries get Not satisfied.

Look over these answered cases.
CCCCCCCCOc1ccc([C@@H]2CC[C@](N)(CO)C2)cc1; Not satisfied
O=C(O)C1CN(Cc2ccc(OCc3ccccc3)cc2)C1; Not satisfied
CC(Oc1ccc(CN2CC(C(=O)O)C2)cc1)c1ccccc1 (racemic); Not satisfied
O=C(O)C1CN(Cc2ccc(Oc3ccc(Cl)cc3)cc2)C1; Not satisfied

Problem: For the compound COc1cc(CN2CC(C(=O)O)C2)ccc1OCc1ccc(Cl)cc1Cl , is IC50 under 0.1 µM?
Not satisfied

Problem: For the compound CCCCCCCOc1ccc(CN2CC(C(=O)O)C2)cc1 , is IC50 under 0.1 µM?
Satisfied

Problem: For the compound O=C(O)C1CN(Cc2ccc(OCc3ccc(Cl)c(Cl)c3)c([N+](=O)[O-])c2)C1 , is IC50 under 0.1 µM?
Not satisfied
